# tgt: α1β3T262Sγ2S GABAA receptor (Rattus norvegicus, UniProt P62813+P63079, T287S)
# Sequence (P62813 28-455, stated change not applied): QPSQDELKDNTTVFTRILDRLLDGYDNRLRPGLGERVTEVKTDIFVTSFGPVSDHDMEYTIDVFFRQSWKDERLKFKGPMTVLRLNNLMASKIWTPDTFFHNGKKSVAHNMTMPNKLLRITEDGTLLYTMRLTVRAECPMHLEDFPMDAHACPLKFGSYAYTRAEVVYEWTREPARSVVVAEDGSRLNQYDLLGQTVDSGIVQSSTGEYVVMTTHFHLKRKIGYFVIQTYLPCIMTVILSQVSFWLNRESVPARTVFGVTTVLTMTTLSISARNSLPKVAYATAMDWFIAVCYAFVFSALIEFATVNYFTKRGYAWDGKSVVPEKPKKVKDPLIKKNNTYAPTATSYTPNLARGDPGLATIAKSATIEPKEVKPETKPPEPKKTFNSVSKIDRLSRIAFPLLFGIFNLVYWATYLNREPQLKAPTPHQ
# Sequence (P63079 26-473 T287S): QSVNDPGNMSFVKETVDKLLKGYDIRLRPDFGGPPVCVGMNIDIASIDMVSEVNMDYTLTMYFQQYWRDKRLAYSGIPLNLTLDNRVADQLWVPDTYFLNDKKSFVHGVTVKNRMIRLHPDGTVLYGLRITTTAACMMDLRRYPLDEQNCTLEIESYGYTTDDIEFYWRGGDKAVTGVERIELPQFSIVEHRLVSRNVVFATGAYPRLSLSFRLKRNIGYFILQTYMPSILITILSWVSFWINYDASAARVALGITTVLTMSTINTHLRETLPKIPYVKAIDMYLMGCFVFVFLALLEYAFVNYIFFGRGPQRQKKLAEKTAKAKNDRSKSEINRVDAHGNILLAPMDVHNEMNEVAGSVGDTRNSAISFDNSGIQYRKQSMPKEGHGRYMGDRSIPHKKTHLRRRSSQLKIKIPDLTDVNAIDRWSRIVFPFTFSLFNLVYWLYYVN
# Sequence (P18508 39-466 partner): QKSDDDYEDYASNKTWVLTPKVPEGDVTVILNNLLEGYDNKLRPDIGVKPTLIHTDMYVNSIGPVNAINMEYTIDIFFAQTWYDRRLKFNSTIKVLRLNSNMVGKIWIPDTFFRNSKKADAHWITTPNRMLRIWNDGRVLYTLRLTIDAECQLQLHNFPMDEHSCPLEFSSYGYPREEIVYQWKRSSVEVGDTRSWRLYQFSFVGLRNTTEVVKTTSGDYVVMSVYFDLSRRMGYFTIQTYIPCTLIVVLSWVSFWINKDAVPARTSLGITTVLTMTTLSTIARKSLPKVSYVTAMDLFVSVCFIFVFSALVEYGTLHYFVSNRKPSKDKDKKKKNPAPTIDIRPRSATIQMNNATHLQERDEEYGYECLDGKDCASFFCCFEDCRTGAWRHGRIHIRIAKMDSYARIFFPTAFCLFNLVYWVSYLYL
# protocol.text: I GABA enhancement by VA, two-microelectrode voltage clamp in Xenopus oocytes
# Type: cell-based
reported.endpoint: EC50

CC1=C2[C@H](/C=C(\C)C(=O)O)CC[C@@H](C)[C@H]2CC1 : 3.4 µM

====

# tgt: α1β3N265Sγ2S GABAA receptor (Rattus norvegicus, UniProt P62813+P63079, N290S)
# Sequence (P62813 28-455): as the sequence (P62813 28-455, stated change not applied) above
# Sequence (P63079 26-473 N290S): as the sequence (P63079 26-473 T287S) above, with S262T, N265S counted along it
# Sequence (P18508 39-466 partner): as the sequence (P18508 39-466 partner) above
# protocol.text: I GABA enhancement by VA, two-microelectrode voltage clamp in Xenopus oocytes
pEC50: −log10 of the molar value.
reported.endpoint: pEC50

CC1=C2[C@H](/C=C(\C)C(=O)O)CC[C@@H](C)[C@H]2CC1 : 3.84
